This collection of values is drawn from paper doi:10.1101/2025.03.12.642038.

- TEST SYSTEM: T1, IRF4 DBD K59R (Homo sapiens, UniProt Q15306 20-132, K59R)
- T1 sequence: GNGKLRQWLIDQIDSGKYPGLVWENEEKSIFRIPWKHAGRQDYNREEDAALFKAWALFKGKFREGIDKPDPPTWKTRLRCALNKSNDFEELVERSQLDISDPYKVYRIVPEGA
- EXPERIMENT NOTES: SPR two-state kinetic; FP: PBS + 0.05% Tween20, 5 nM DNA, 1 h, room temperature; SPR: Biacore S200, SA chip, protein 0.1-4500 nM, running buffer not given in material; errors are SD
- EXPERIMENTAL CONTEXT: protein: recombinant; tags: N-terminal His8-linker-His8-TEV, cleaved; label: 3' biotin; hairpin, TTTT loop

{"BINDER": "CTTGGTTTCACTTCCTGCGTTTTCGCAGGAAGTGAAACCAAG (structured_DNA) [IRE hairpin (biotin)]", "UNIT ABBREV": "nM", "Kd": 460}
